Data credit: ChEMBL document CHEMBL2095176

Assay: physchem
Settings: octanol/water
Description: GSK_TB: GSK in-house hydrophobicity assay (logP)
logP for assorted molecules
Just the number, please.

# example entries with known answers
{"molecule": "Cc1cc(OCC(=O)NCc2ccccc2)c2cc(Br)ccc2n1", "logP": 5.13}
{"molecule": "Cc1ccc2nc(C(F)(F)F)c(C(=O)NCc3cccs3)n2c1", "logP": 4.98}
{"molecule": "Cc1ccc2nc(C)c(-c3ccn(Cc4ccccc4)n3)n2c1", "logP": 5.54}
{"molecule": "O=C(CCCSc1ccccc1)NNC(=O)c1cccs1", "logP": 3.77}
{"molecule": "CN(C)S(=O)(=O)c1ccc(C(=O)Nc2nnc(-c3ccc(Cl)s3)o2)cc1", "logP": 4.69}
{"molecule": "CCc1ccc(Nc2nnc(SCc3cc(C)on3)s2)cc1", "logP": 5.98}
{"molecule": "Cc1cnc(N2CCN[C@@H](Cc3ccccc3)C2)nc1Oc1ccc(-n2ccnc2)cc1.O=C(O)C(F)(F)F", "logP": 5.03}
{"molecule": "N=C(N)c1ccc(CCN2CCC(c3nc(COCC(F)(F)F)c(-c4ccc(F)cc4)o3)CC2)cc1.O=C(O)C(F)(F)F.O=C(O)C(F)(F)F", "logP": 6.14}

Now look at this one.
Given the entry "Cc1ccc2nc(Cl)c(CNCc3cccs3)cc2c1" , report its measured logP.
7.23

====

solubility kinetic for assorted compounds
Experiment: physchem
Conditions: phosphate buffered saline, pH 7.4

# example entries with known answers
{"smiles input": "O=C(O)C(F)(F)F.c1ccc(C[C@H]2CN(c3nccc(Oc4ccc(-n5ccnc5)cc4)n3)CCN2)cc1", "observed measurement": "260 µM"}
{"smiles input": "c1csc(Cc2nn3c(-c4n[nH]c5c4CCC5)nnc3s2)c1", "observed measurement": "196 µM"}
{"smiles input": "COc1ccc2cc(C(=O)Nc3ccc(C4CCN(C)CC4)cc3)sc2c1", "observed measurement": "62 µM"}

Now look at this one.
Given the entry "Cc1ccc2nc(Cl)c(CNCc3cccs3)cc2c1" , report its measured solubility kinetic.
44 µM

====

solubility kinetic for assorted compounds
Assay: physchem
Settings: phosphate buffered saline, pH 7.4
Could you give me the number in µM? Just the number is fine.

{"smiles input": "c1ccc(SCc2nn3c(-c4ccccc4)nnc3s2)cc1", "units": "µM", "solubility kinetic": 1}
{"smiles input": "O=C(Nc1ccccc1-c1nc(C2CCC2)cs1)OCC1CCNCC1.O=C(O)C(F)(F)F", "units": "µM", "solubility kinetic": 115}
{"smiles input": "COc1ccc(Nc2ccccc2NC(=O)c2ccc(O)nc2)cc1", "units": "µM", "solubility kinetic": 362}

Now look at this one.
Given the entry "Cc1csc2nc(-c3ccccn3)nc(Nc3ccncn3)c12.O=C(O)C(F)(F)F" , report its measured solubility kinetic.
231

====

Assay: physchem
Conditions: phosphate buffered saline, pH 7.4
Note to self: values exactly at 50 µM are Satisfied. So solubility kinetic at or above 50 µM is Satisfied, below is Not satisfied.

See these solved cases before continuing.
{"smiles input": "O=C(Cc1ccc(F)cc1)Nc1nc(-c2ccccn2)cs1", "qualitative label": "Not satisfied"}
{"smiles input": "Cc1nc2ccccn2c1C(=O)NCc1ccc2c(c1)OCO2", "qualitative label": "Satisfied"}

Could you tell me if the measured solubility kinetic of "c1ccc(-c2nc(NC3CCCCC3)cc(C3CC3)n2)nc1" reaches 50 µM or more?
Satisfied

Same question, "CC(C)c1ccc(-c2cncc(N3CCN(c4ccncc4)CC3)n2)cc1" this time
Satisfied

Same question, "CC(=O)N1CCc2cc3nc(C)cc(C)c3cc21" this time
Satisfied

Same question, "N=C(Nc1nc(-c2ccccn2)cc2ccccc12)c1cccc(Cl)c1" this time
Not satisfied

Same question, "Brc1cncc(-c2cc(NCCCn3ccnc3)nc(-c3ccccc3)n2)c1" this time
Not satisfied

Same question, "CCN(CC)c1ccc(-c2nn3c(-c4n[nH]c5c4CCC5)nnc3s2)cc1" this time
Not satisfied

Same question, "CCn1c(=O)c(=O)[nH]c2cc(C(=O)Nc3ccccc3Nc3ccc(OC)cc3)ccc21" this time
Not satisfied

Same question, "Cc1cnc(N2CCN[C@@H](Cc3ccccc3)C2)nc1Oc1ccc(-n2ccnc2)cc1.O=C(O)C(F)(F)F" this time
Satisfied

Same question, "C=CCNc1nc(SC)nc2ccccc12" this time
Satisfied

Same question, "Cc1ccc(C(=O)Nc2nc(-c3ccccn3)cs2)s1" this time
Not satisfied

Same question, "Br.CC1(C)N=C(N)N=C(N)N1OCCc1ccc2ccccc2c1" this time
Satisfied
